- test_target: T1, MT1-MMP hemopexin domain (UniProt P50281 319-511)
- T1 construct: domain: hemopexin domain; also called hemopexin of MT1-MMP; membrane type 1 metalloprotease
- test_protocol: fluorescence polarization (anisotropy) assay on MT1-MMP hemopexin domain; grade A = Ki <50 nM
pKi: −log10 of the molar value. Numbered stars: 1 amine (or outer) side, 2 acyl side, 3 side chain; on linkers, the order of the positions; unused ones are H or OH. Bridge positions count the residues as written; N and C are the ends. Square brackets hold non-standard residues; d marks the D form. Ends that are not written are not given here. Intermediate K = 1,3,5-tris(vinylsulfonyl)benzene, O=S(=O)(CC[*:1])c1cc(S(=O)(=O)CC[*:2])cc(S(=O)(=O)CC[*:3])c1; Intermediate C = 1,1',1''-(1,4,7-triazonane-1,4,7-triyl)tris(2-chloroethan-1-one); 1Nal = N[C@@H](Cc1cccc2ccccc12)C(=O)O; Tle = CC(C)(C)[C@H](N)C(=O)O
Catalogue of binders with associated pKi
value_type: pKi

[[record]]
binder = "AC[dA]NE[1Nal][dA]CEDFYD[Tle]C (linker 2-8-15 via Intermediate C, also called peptide 4 cyclised with Intermediate C) [I-54]"
reported = "> 7.30"

[[record]]
binder = "AC[dA]NE[1Nal][dA]CEDFYD[Tle]C (linker 2-8-15 via Intermediate K, also called peptide 4 cyclised with Intermediate K) [I-61]"
reported = "> 7.30"


Numbers sourced from patent US20180311300A1.
